# credit: PubChem BioAssay (NCI)

System: CAKI-1 renal
Assay: NCI-60 one-dose screen, 48 h
Conditions: 10 µM unless noted
The panel holds about 83,000 compounds, 20% with a hit somewhere; the sample as a whole holds those more often. Active and inactive are the calls of the source. Rule for the calls: active = growth percent below 10; inactive = the rest.
Respond only with the outcome that fits, drawn from active, inactive

structureAsSmiles | targetEntity | class
O=C1Nc2ccc(Cl)cc2/C1=C\c1c(-c2ccc(F)cc2)nc2ccccn12 | CAKI-1 renal | inactive

Dear all, I need the recorded test outcome for CCC(=O)NC1=C(Cl)C(=O)C(NC(=O)CC)=C(Cl)C1=O , thank you.
inactive

Now give it for CN1CCCN(CCNc2nccc(-c3c(-c4cccc(O)c4)nc4sccn34)n2)S1(=O)=O too.
active

Now give it for COc1cc(OC)c(Cl)cc1N too.
inactive

Now give it for O=C(CCCN1CCC(O)(c2ccc(Br)cc2)CC1)c1ccc(F)cc1 too.
inactive

Now give it for COc1cc(OC)cc(-c2ccc(-c3ccc(C(=N)N)s3)s2)c1 too.
active

###

Tested on: IGROV1 ovarian
Test: NCI-60 one-dose screen, 48 h (100 = growth as untreated, 0 = no growth, -100 = all killed)
Conditions: 10 µM unless noted
The panel holds about 83,000 compounds, 20% with a hit somewhere; the sample as a whole holds those more often.
Parameter: growth. Scope: all listed entries.
Write the answer as a number in %, unit excluded.

compound | targetEntity | growth [%]
Cc1ccccc1NC(=O)c1sc2nc3c(cc2c1N)C(=O)CCC3 | IGROV1 ovarian | 77
O=[N+]([O-])c1ccc(SSc2ccc([N+](=O)[O-])cc2Cl)c(Cl)c1 | IGROV1 ovarian | 69.6
CC(C)[C@@H]1C=C2CC[C@H]3[C@](C)(CN)CCC[C@]3(C)[C@H]2CC1 | IGROV1 ovarian | 92.2

# query: growth of entry CC[C@]1(O)C[C@H]2CN(CCc3c([nH]c4ccccc34)C(C(=O)OC)(c3cc4c(cc3OC)N(C)[C@H]3[C@@](O)(C(=O)OC)[C@H](OC(C)=O)[C@]5(CC)[C@@H]6C[C@@H]6CN6CC[C@]43[C@@H]65)C2)C1 (stereo partly specified)
9.14

Now give it for CCC(=O)OCc1ccc(OC)cc1 too.
102

Now give it for O=C1/C(=C/N2N=C(c3ccc(Cl)cc3)CC2c2ccccc2O)SC(=S)N1c1cccc(C(F)(F)F)c1 (stereo unspecified) too.
43.7

Now give it for CCN(CC)CC(=O)Nc1c(C)ccc(N)c1C too.
95.4

Now give it for CC1=C(O)C(=O)CC1 too.
107

Now give it for O=C(Nc1ccc(Br)cc1)c1ccc(Cl)c(Cl)c1 too.
66.7

Now give it for CN1C(=O)C(C2=NNC(c3ccccc3C(=O)O)C2)C(=O)N(C)C1=O (stereo unspecified) too.
106

Now give it for CC(=O)c1ccc(Br)c([N+](=O)[O-])c1 too.
109

###

System: HCT-15 colon
Experiment: NCI-60 one-dose screen, 48 h (100 = growth as untreated, 0 = no growth, -100 = all killed)
Details: 10 µM unless noted
Description: Growth inhibition of the HCT-15 human tumor cell line is measured as a screen for anti-cancer activity. Cells are grown in 96 well plates and exposed to the test compound for 48 hours. Compounds are tested at a single concentration, which is 10^-5 M for most compounds. The reported endpoint is percent growth (GI% or GIPRCNT), where numbers from 0 - 100% represent growth inhibition, and numbers from -100% - 0 represent cell death. For example, a value of 40 represents 60% growth inhibition. […]
The panel holds about 83,000 compounds, 20% with a hit somewhere; the sample as a whole holds those more often. Activity calls are given as the source filed them. The calls were made as follows: active = growth percent below 10; inactive = the rest.
Parameter: growth. Scope: all listed entries.

structureAsSmiles | endpointResult
CCN(CC)c1ccc(/C=C2/NC(=O)NC2=O)cc1 | 36.6% (inactive)
COc1ccccc1/C=C/C(=O)CCC(=O)O | 113% (inactive)
O=C(O)c1ccccc1Oc1cc(-c2ccco2)nc(OCCN2CCOCC2)n1 | 101% (inactive)

# query: growth of entry O=C(Nc1ccccc1)c1cc2ccccc2s1
63.9% (inactive)

Now give it for CCCC(CCC)(C(N)=O)C(=O)O too.
105% (inactive)

Now give it for COc1cnc2c(c1)C(=O)c1c-2n(CCCNC(C)C)c(=O)c2cc(Cl)ccc12 too.
-47.2% (active)

###

System: SW-620 colon
Assay: NCI-60 one-dose screen, 48 h (100 = growth as untreated, 0 = no growth, -100 = all killed)
Conditions: 10 µM unless noted
About 83,000 compounds went through this panel and 20% of them were active in at least one assay; those are over-represented in the sample as a whole.
valueType: growth (%)
Write the answer as a number in %, unit excluded.

Reference set, count: 2
compound | u | growth
C[N+](C)(C)CCCCCCCCCC[N+](C)(C)C | % | 95.8
CN(C)c1nc(-c2cccs2)n2nc(-c3ccc(Cl)cc3)cc2n1 | % | 56.8

Field: next compound
# query: growth of entry CN1C2CCC1/C(=C\c1ccc(F)cc1)C(=O)/C2=C/c1ccc(F)cc1
38.2

###

Parameter: growth. Scope: all listed entries.
Tested on: NCI-H322M lung
Test: NCI-60 one-dose screen, 48 h (100 = growth as untreated, 0 = no growth, -100 = all killed)
Settings: 10 µM unless noted
Compounds without any hit were thinned out: in the full panel of roughly 83,000, 20% have a hit. Activity calls are given as the source filed them. The calls were made as follows: active = growth percent below 10; inactive = the rest.

Reference set, count: 2
compound | valueType | endpointResult
O=C(Nc1ccc(-n2ccc3c(NC(=O)c4ccccc4)nccc32)cc1)c1ccc(N2CCOCC2)c(C(F)(F)F)c1 | growth | 48.6% (inactive)
O=c1c2cc(Br)cc(Br)c2nc(-c2ccc(Cl)cc2)n1/N=C/c1cccc(F)c1 | growth | 49.3% (inactive)

# query: growth of entry COc1cccc(NC(=O)OC(C)C)c1
99% (inactive)

Now give it for CCCCCCCCCCCCCC too.
105% (inactive)

Now give it for CCOC(=O)c1cc(N)nc2ccccc12 too.
156% (inactive)

Now give it for CCCCc1nc(Cl)c(C2CC(c3ccc(S(N)(=O)=O)cc3)=NN2c2cc(Cl)cc(Cl)c2)[nH]1 (stereo not drawn) too.
77.7% (inactive)

Now give it for CCn1c(Cc2ccccc2Nc2c(Cl)cccc2Cl)nnc1SCC(=O)Nc1ccccc1C(F)(F)F too.
79.4% (inactive)

Now give it for COc1cc2ccc(C(C)=O)cc2cc1OC too.
104% (inactive)

Now give it for COC(=O)C(Br)(C(=O)OC)C(Br)C(Br)C(Br)c1ccccc1 (stereo not drawn) too.
102% (inactive)

Now give it for COCc1nc(NS(=O)(=O)c2ccc(N)cc2)nc(C)c1Br too.
99% (inactive)

Now give it for Clc1ccc(C2=NN[C@H](c3cn(-c4ccccc4)nc3-c3ccccc3)C2)cc1 too.
72.5% (inactive)

Now give it for CCOC(=O)C#Cc1c(C(=O)OCC)nnn1[C@@H]1O[C@H](COC(C)=O)[C@@H](OC(C)=O)[C@H]1OC(C)=O too.
101% (inactive)

Now give it for CCCCn1cnc2c(SCc3ccc([N+](=O)[O-])cc3)nc(N)nc21 too.
112% (inactive)

Now give it for C=CCN(CC#N)CC=C too.
106% (inactive)

Now give it for CS(=O)(=O)c1ccc(C(=O)N/N=C/c2ccc3c(c2)OCO3)cc1 too.
96.2% (inactive)

Now give it for Oc1ccc(-c2nnc3c4[nH]ccc4ncn23)cc1 too.
98.2% (inactive)

Now give it for COc1cc2ncnc(Nc3ccc(S(=O)(=O)Nc4nccs4)cc3)c2cc1OCCCN1CCOCC1 too.
102% (inactive)

Now give it for C#C[C@]1(O)CC[C@H]2[C@@H]3CC=C4c5sc(-c6cccc(Br)c6)nc5CC[C@]4(C)[C@H]3CC[C@@]21C too.
73.5% (inactive)

Now give it for CC(=O)O[C@H]1CC[C@]2(C)[C@H]3CC=C4[C@@H]5CC(C)(C)CC[C@]5(C(=O)OCC(COC(=O)C(Cl)Cl)(COC(=O)C(Cl)Cl)NC(=O)C(Cl)Cl)CC[C@@]4(C)[C@]3(C)CC[C@H]2C1(C)C too.
89.1% (inactive)

Now give it for Cc1[nH]c2ccccc2c1C1=CC(=O)C=CC1=O too.
120% (inactive)

Now give it for COc1ccc(-c2cc(C(=O)Nc3ccc(C)cc3)nc3[nH]c(=O)sc23)cc1 too.
78.5% (inactive)

Now give it for COc1cc2c(cc1OC)-c1cc(OC)c(OC)cc1C(CN(C)C)C2 (stereo not drawn) too.
38.9% [100 µM] (inactive)

Now give it for CCCCCCCCN(CCCCCCCC)C(=O)CCl too.
108% (inactive)
